# measurement_notes: Zeta-potential measurement
# Assay type: physicochemical
# measurement_conditions: mean, Std in separate column
Entries and their measured Zeta Pot. / mV follow.
Reply numerically in mV, unit not repeated.

Solved cases (2 shown):
KFKFQFNMWQ [JG4]; 25.4
CKFKFQFNMW [KB14]; 18.4

# ---- query sequence ----
Ask: Fill in Zeta Pot. / mV for record RGDKIKIQINMC [psis29]
Result: 12.2

---

# Tested on: HIV-1 infection of TZM-bl cells
# measurement_notes: HIV-1 infectivity enhancement assay, β-galactosidase luminescence
# Assay type: cell-based
# measurement_conditions: Fig. S7 panel A (plotted against β-sheet content); Log10 infection relative to EF-C, TZM-bl cells; asymmetric std dev errors
Entries and their measured Log Infectivity follow.
The answer should be a number; do not append a unit.

QCKIKQIINMWQ [reference compound]; 0
CKFKFQF; 0.09083
HHHHKIKIKIKIWWWW; -0.4216
KIKIKIKIWW; -0.4266
CKIKIQINM; 0.2012

Ask: Fill in Log Infectivity for record `HLHLPLL`
Result: -1.9991

Ask: Fill in Log Infectivity for record `RGDKIKIQINM`
Result: -0.3838

Ask: Fill in Log Infectivity for record `MKIKIQINM`
Result: -0.5635

Ask: Fill in Log Infectivity for record `QCKIKIQINM`
Result: -0.4024

Ask: Fill in Log Infectivity for record `CKIKIQINMWQ`
Result: -0.155

Ask: Fill in Log Infectivity for record `HHHHKAKAKAKAWWWW`
Result: -1.048

Ask: Fill in Log Infectivity for record `RGDKIRGDKI`
Result: -2.126

Ask: Fill in Log Infectivity for record `QCKAKAQANMWQ`
Result: -1.144

Ask: Fill in Log Infectivity for record `NMWQKAKAQA`
Result: -1.376

Ask: Fill in Log Infectivity for record `KIKIQI`
Result: -1.169

Ask: Fill in Log Infectivity for record `CKIKIQIII`
Result: -0.01045

Ask: Fill in Log Infectivity for record `HGEHGEHGE`
Result: -1.72

Ask: Fill in Log Infectivity for record `CKIKIQI`
Result: 0.0081

Ask: Fill in Log Infectivity for record `CRFRFQF`
Result: -0.4635

Ask: Fill in Log Infectivity for record `CQFQFQF`
Result: -0.4519

Ask: Fill in Log Infectivity for record `SISISRRI`
Result: -1.548
